Kindly supply the reported Turnover values for the records listed here.
Tested on: HPPD polypeptides
Test: coupled HPPD activity assay: turnover and residual turnover in crude extracts
Format: biochemical, Pseudomonas fluorescens
Conditions: absence of Cmpd. 1; high substrate concentration; kinetic changes in absorbance (OD) at 320 nm, 30 min
Form rule: numeric answer, no unit written next to it.

INPUT: Consider the molecule shown here: 62 (protein, mutant HPPD polypeptide) MADLYENPMGLMGFEFIEFASPTPGTLEPIFEIMGFTKVATHRSKNVHLYRQGEINLILNNEPNSIASYFAAEHGPSVCGMAFRVKDSQKAYNRALELGAQPIHIDTGPMELNLPAIKGIGGAPLYLIDRFGEGSSIYDIDFVYLEGVERNPVGAGLKVIDHLTHNVYRGRMVYWANFYEKLFNFREARYFDIKGEYTGLTSKAMSAPDGMIRIPLNEESSKGAGQIEEFLMQFNGEGIQHVAFLTDDLVKTWDALKKIGMRFMTAPADSYYEMLEGRLPDHGEPVDQLQARGILLDGSSVEGDKRLLLQIFSETLMGPVFFEFIQRKGDDGFGPHSFKVLFESMERDQVRRGVLTAD What is its recorded Turnover?
OUTPUT: 0.308

INPUT: Consider the molecule shown here: 13 (protein, mutant HPPD polypeptide) MADLYENPMGLMGFEFIEFASPTPGTLEPIFEIMGFTKVATHRSKNVHLYRQGEINLILNNEPNSIASYFAAEHGPSVCGMAFRVKDSQKAYNRALELGAQPIHIDTGPMELNLPAIKGIGGAPLYLIDRFGEGSSIYDIDFVYLEGVERNPVGAGLKVIDHLTHNVYRGRMVYWANFYEKLFNFREARYFDIKGEYTGLTSKAMSAPDGMIRIPLNEESSKGAGQIEEFLMQFNGEGIQHVAFLTDDLVKTWDALKKIGMRFMTAPGDNYYEMLEGRLPDHGEPVDQLQARGILLDGSSVEGDKRLLLQIFSETLMGPVFFEFIQRKGDDGFGPDSFKVLFESVERDQVRRGVLTAD What is its recorded Turnover?
OUTPUT: 0.024
